tested on: NCI-H23; test: relative viability (nuclei count vs DMSO), 5 days (fraction); higher = more cells survive; details: first compound 0.04 µM
The entries below are paired with their reported relative viability.

INSERT INTO measurements (compound, system, observed_property, result) VALUES
  ('Clc1ccc(Nc2nnc(Cc3ccncc3)c3ccccc23)cc1 [Vatalanib] + CCNC(=O)c1noc(-c2cc(C(C)C)c(O)cc2O)c1-c1ccc(CN2CCOCC2)cc1 [Luminespib] (partner 0.01 µM)', 'NCI-H23', 'relative viability', 0.229),
  ('COc1cc(N2CCC(C(N)=O)CC2)ccc1Nc1nc(N)c(Cl)c(Nc2ccccc2S(=O)(=O)C(C)C)n1 [HG-5-88-01] + COc1cc2c(Oc3ccc(NC(=O)C4(C(=O)Nc5ccc(F)cc5)CC4)cc3F)ccnc2cc1OCCCN1CCOCC1 [Foretinib] (partner 0.25 µM)', 'NCI-H23', 'relative viability', 1.08),
  ('COc1cc(N2CCC(C(N)=O)CC2)ccc1Nc1nc(N)c(Cl)c(Nc2ccccc2S(=O)(=O)C(C)C)n1 [HG-5-88-01] + Nc1nc2[nH]cc(CCc3ccc(C(=O)N[C@@H](CCC(=O)O)C(=O)O)cc3)c2c(=O)[nH]1 [Pemetrexed] (partner 0.2 µM)', 'NCI-H23', 'relative viability', 0.678),
  ('C[C@@H]1CN(CC(=O)Nc2ccc3c(c2)Cc2cccc(-c4cc(=O)cc(N5CCOCC5)o4)c2S3)C[C@H](C)O1 + CC(=O)c1c(C)c2cnc(Nc3ccc(N4CCNCC4)cn3)nc2n(C2CCCC2)c1=O [Palbociclib] (partner 0.5 µM)', 'NCI-H23', 'relative viability', 0.455),
  ('COc1cc(N2CCC(C(N)=O)CC2)ccc1Nc1nc(N)c(Cl)c(Nc2ccccc2S(=O)(=O)C(C)C)n1 [HG-5-88-01] + CC1(C)CCC(c2ccc(Cl)cc2)=C(CN2CCN(c3ccc(C(=O)NS(=O)(=O)c4ccc(N[C@H](CCN5CCOCC5)CSc5ccccc5)c(S(=O)(=O)C(F)(F)F)c4)cc3)CC2)C1 [Navitoclax] (partner 0.5 µM)', 'NCI-H23', 'relative viability', 0.945),
  ('COc1cc(N2CCC(C(N)=O)CC2)ccc1Nc1nc(N)c(Cl)c(Nc2ccccc2S(=O)(=O)C(C)C)n1 [HG-5-88-01] + NC(=O)Nc1cc(-c2cccc(F)c2)sc1C(=O)N[C@H]1CCCNC1 [AZD7762] (partner 0.2 µM)', 'NCI-H23', 'relative viability', 0.483);

Request the reported relative viability associated with Clc1ccc(Nc2nnc(Cc3ccncc3)c3ccccc23)cc1 [Vatalanib] + NC(=O)Nc1cc(-c2cccc(F)c2)sc1C(=O)N[C@H]1CCCNC1 [AZD7762] (partner 0.2 µM)
0.269

Request the reported relative viability associated with Clc1ccc(Nc2nnc(Cc3ccncc3)c3ccccc23)cc1 [Vatalanib] + CC1(C)CCC(c2ccc(Cl)cc2)=C(CN2CCN(c3ccc(C(=O)NS(=O)(=O)c4ccc(N[C@H](CCN5CCOCC5)CSc5ccccc5)c(S(=O)(=O)C(F)(F)F)c4)cc3)CC2)C1 [Navitoclax] (partner 0.5 µM)
0.772

====

test system: NCI-H3122; assay: relative viability (nuclei count vs DMSO), 5 days (fraction); higher = more cells survive; settings: first compound 0.04 µM
The entries below are paired with their reported relative viability.
Number, no unit, nothing else.

Recorded results for 5 compounds are shown here.
INSERT INTO measurements (compound, numeric_result) VALUES
  ('C[C@@H]1CN(CC(=O)Nc2ccc3c(c2)Cc2cccc(-c4cc(=O)cc(N5CCOCC5)o4)c2S3)C[C@H](C)O1 + COc1cccc2cc(-c3nc([C@H]4CC[C@H](C(=O)O)CC4)n4ncnc(N)c34)[nH]c12 [OSI-027] (partner 0.5 µM)', 0.994),
  ('Clc1ccc(Nc2nnc(Cc3ccncc3)c3ccccc23)cc1 [Vatalanib] + Nc1nc2[nH]cc(CCc3ccc(C(=O)N[C@@H](CCC(=O)O)C(=O)O)cc3)c2c(=O)[nH]1 [Pemetrexed] (partner 0.2 µM)', 0.195),
  ('C[C@@H]1CN(CC(=O)Nc2ccc3c(c2)Cc2cccc(-c4cc(=O)cc(N5CCOCC5)o4)c2S3)C[C@H](C)O1 + C[C@]1(O)C[C@@H](c2nc(-c3ccc4ccc(-c5ccccc5)nc4c3)c3c(N)nccn32)C1 [Linsitinib] (partner 1 µM)', 1.07),
  ('C[C@@H]1CN(CC(=O)Nc2ccc3c(c2)Cc2cccc(-c4cc(=O)cc(N5CCOCC5)o4)c2S3)C[C@H](C)O1 + O=C(c1cc(Cc2n[nH]c(=O)c3ccccc23)ccc1F)N1CCN(C(=O)C2CC2)CC1 [Olaparib] (partner 8 µM)', 0.607),
  ('C[C@@H]1CN(CC(=O)Nc2ccc3c(c2)Cc2cccc(-c4cc(=O)cc(N5CCOCC5)o4)c2S3)C[C@H](C)O1 + Cc1nc(NC(=O)N2CCC[C@H]2C(N)=O)sc1-c1ccnc(C(C)(C)C(F)(F)F)c1 [Alpelisib] (partner 2 µM)', 0.861);

Requested read-out relative viability, target or system NCI-H3122, entry C[C@@H]1CN(CC(=O)Nc2ccc3c(c2)Cc2cccc(-c4cc(=O)cc(N5CCOCC5)o4)c2S3)C[C@H](C)O1 + Nc1nc2[nH]cc(CCc3ccc(C(=O)N[C@@H](CCC(=O)O)C(=O)O)cc3)c2c(=O)[nH]1 [Pemetrexed] (partner 0.2 µM)
0.192

Requested read-out relative viability, target or system NCI-H3122, entry COc1cc(N2CCC(C(N)=O)CC2)ccc1Nc1nc(N)c(Cl)c(Nc2ccccc2S(=O)(=O)C(C)C)n1 [HG-5-88-01] + COc1cc2c(Oc3ccc(NC(=O)C4(C(=O)Nc5ccc(F)cc5)CC4)cc3F)ccnc2cc1OCCCN1CCOCC1 [Foretinib] (partner 0.25 µM)
0.891

Requested read-out relative viability, target or system NCI-H3122, entry C[C@@H]1CN(CC(=O)Nc2ccc3c(c2)Cc2cccc(-c4cc(=O)cc(N5CCOCC5)o4)c2S3)C[C@H](C)O1 + Cc1cc(Nc2cc(N3CCN(C)CC3)nc(Sc3ccc(NC(=O)C4CC4)cc3)n2)n[nH]1 [Tozasertib] (partner 0.1 µM)
0.4

Requested read-out relative viability, target or system NCI-H3122, entry Clc1ccc(Nc2nnc(Cc3ccncc3)c3ccccc23)cc1 [Vatalanib] + Cc1nc(Nc2ncc(C(=O)Nc3c(C)cccc3Cl)s2)cc(N2CCN(CCO)CC2)n1 [Dasatinib] (partner 0.075 µM)
0.986

Requested read-out relative viability, target or system NCI-H3122, entry COc1cc(N2CCC(C(N)=O)CC2)ccc1Nc1nc(N)c(Cl)c(Nc2ccccc2S(=O)(=O)C(C)C)n1 [HG-5-88-01] + O=C(c1cc(Cc2n[nH]c(=O)c3ccccc23)ccc1F)N1CCN(C(=O)C2CC2)CC1 [Olaparib] (partner 8 µM)
0.594

Requested read-out relative viability, target or system NCI-H3122, entry COc1cc(N2CCC(C(N)=O)CC2)ccc1Nc1nc(N)c(Cl)c(Nc2ccccc2S(=O)(=O)C(C)C)n1 [HG-5-88-01] + Nc1ncn([C@H]2C[C@H](O)[C@@H](CO)O2)c(=O)n1 [Decitabine] (partner 2 µM)
0.365

Requested read-out relative viability, target or system NCI-H3122, entry Clc1ccc(Nc2nnc(Cc3ccncc3)c3ccccc23)cc1 [Vatalanib] + CC(=O)Nc1cccc(-n2c(=O)n(C3CC3)c(=O)c3c(Nc4ccc(I)cc4F)n(C)c(=O)c(C)c32)c1 [Trametinib] (partner 0.02 µM)
0.239

Requested read-out relative viability, target or system NCI-H3122, entry C[C@@H]1CN(CC(=O)Nc2ccc3c(c2)Cc2cccc(-c4cc(=O)cc(N5CCOCC5)o4)c2S3)C[C@H](C)O1 + CS(=O)(=O)N1CCN(Cc2cc3nc(-c4cccc5[nH]ncc45)nc(N4CCOCC4)c3s2)CC1 [Pictilisib] (partner 1 µM)
0.656

Requested read-out relative viability, target or system NCI-H3122, entry C[C@@H]1CN(CC(=O)Nc2ccc3c(c2)Cc2cccc(-c4cc(=O)cc(N5CCOCC5)o4)c2S3)C[C@H](C)O1 + CC(=O)Nc1cccc(-n2c(=O)n(C3CC3)c(=O)c3c(Nc4ccc(I)cc4F)n(C)c(=O)c(C)c32)c1 [Trametinib] (partner 0.02 µM)
0.273

Requested read-out relative viability, target or system NCI-H3122, entry Clc1ccc(Nc2nnc(Cc3ccncc3)c3ccccc23)cc1 [Vatalanib] + O=C(c1cc(Cc2n[nH]c(=O)c3ccccc23)ccc1F)N1CCN(C(=O)C2CC2)CC1 [Olaparib] (partner 8 µM)
0.593

Requested read-out relative viability, target or system NCI-H3122, entry Clc1ccc(Nc2nnc(Cc3ccncc3)c3ccccc23)cc1 [Vatalanib] + NC(=O)Nc1cc(-c2cccc(F)c2)sc1C(=O)N[C@H]1CCCNC1 [AZD7762] (partner 0.2 µM)
1.07

Where these numbers come from: the supplement of paper PMC10307832
